The reported measurements were obtained from paper PMC10238197.

# Measured Target: T1, WHRN-PDZ2 domain, purified (mouse)
# T1 sequence (Q80VW5 whole entry, looked up): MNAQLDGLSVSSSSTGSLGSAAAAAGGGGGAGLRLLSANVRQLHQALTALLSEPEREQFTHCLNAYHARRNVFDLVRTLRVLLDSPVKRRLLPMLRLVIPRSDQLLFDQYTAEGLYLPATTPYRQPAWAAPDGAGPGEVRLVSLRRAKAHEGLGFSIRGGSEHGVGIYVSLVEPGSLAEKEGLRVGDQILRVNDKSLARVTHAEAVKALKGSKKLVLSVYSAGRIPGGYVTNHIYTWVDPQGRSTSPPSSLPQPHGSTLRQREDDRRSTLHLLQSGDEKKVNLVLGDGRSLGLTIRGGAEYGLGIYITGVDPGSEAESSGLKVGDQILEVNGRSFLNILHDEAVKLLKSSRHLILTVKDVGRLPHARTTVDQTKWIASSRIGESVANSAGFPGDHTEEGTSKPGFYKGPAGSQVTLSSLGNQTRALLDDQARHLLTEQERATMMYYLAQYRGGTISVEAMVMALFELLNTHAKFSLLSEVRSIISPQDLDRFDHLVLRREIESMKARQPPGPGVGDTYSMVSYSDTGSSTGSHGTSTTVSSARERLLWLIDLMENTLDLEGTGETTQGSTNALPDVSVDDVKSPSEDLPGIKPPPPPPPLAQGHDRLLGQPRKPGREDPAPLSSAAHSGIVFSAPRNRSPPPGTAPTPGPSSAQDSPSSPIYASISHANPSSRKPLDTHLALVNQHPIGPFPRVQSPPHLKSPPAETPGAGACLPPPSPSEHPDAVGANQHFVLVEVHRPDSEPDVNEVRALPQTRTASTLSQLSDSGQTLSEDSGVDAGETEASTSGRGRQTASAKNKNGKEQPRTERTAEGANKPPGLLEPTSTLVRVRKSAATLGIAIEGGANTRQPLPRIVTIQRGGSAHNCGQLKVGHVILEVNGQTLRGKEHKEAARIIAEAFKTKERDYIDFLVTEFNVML
# Test Name: SPR; BiaCore T200; WHRN-PDZ1 or WHRN-PDZ2 immobilised on a CM5 chip, peptide as analyte in serial dilutions, 120 s association and 120 s dissociation; 10 mM HEPES, 150 mM NaCl, 0.05% Surfactant P20, 0.01% DDM, 0.002% CHS, pH 7.4
Readout Name: pKd
pKd (log units): -log10 of the concentration in mol/L.

-- ask Entry under review: RRIPIADTHL [ADGRV1p, 10-residue C-terminal tail peptide of ADGRV1 harboring the PDZ-binding motif] . Reported pKd?
-- reply 4.21
